tested on: E21 (patient-derived glioblastoma stem cells of mesenchymal subtype); assay: phenotypic distance (Euclidean, principal components) from DMSO controls (arbitrary units); higher = stronger morphological change; conditions: 1000 nM; exposure time: 72 h;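 also: cell Painting imaging in 384-well plates, CellProfiler features reduced to at least 20 principal components, Euclidean distance versus same-plate DMSO vehicle wells (0.1% v/v), median over six images per well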
Counter-ions that a name gives are not always drawn.
Kindly return 1 if reported phenotypic distance is no lower than 0.9; return -1 if it is lower.

>>> category("CCC1=C[C@@H]2CN(C1)Cc1c([nH]c3ccccc13)[C@@](C(=O)OC)(c1cc3c(cc1OC)N(C)[C@H]1[C@@](O)(C(=O)OC)[C@H](OC(C)=O)[C@]4(CC)C=CCN5CC[C@]31[C@@H]54)C2 [Vinorelbine Tartrate]")
1
>>> category("Cn1nnc2c(C(N)=O)ncn2c1=O [Temozolomide]")
-1
>>> category("CNCCCC12CCC(c3ccccc31)c1ccccc12 [Maprotiline hydrochloride]")
-1
>>> category("CC(=O)O[C@H]1C[C@H](O[C@H]2[C@@H](O)C[C@H](O[C@H]3[C@@H](O)C[C@H](O[C@H]4CC[C@@]5(C)[C@H](CC[C@@H]6[C@@H]5C[C@@H](O)[C@]5(C)[C@@H](C7=CC(=O)OC7)CC[C@]65O)C4)O[C@@H]3C)O[C@@H]2C)O[C@H](C)[C@H]1O[C@@H]1O[C@H](CO)[C@@H](O)[C@H](O)[C@H]1O [Lanatoside C]")
1
>>> category("CN(C)C(=O)Oc1ccc[n+](C)c1 [Pyridostigmine iodide]")
1

Problem: Given the entry O=C1CC[C@@H](C(=O)N2CSC[C@H]2C(=O)O)N1 , answer whether its phenotypic distance meets or surpasses 0.9.
Result: -1

Problem: Given the entry CN[C@@H]1[C@@H](O)[C@@H](O[C@@H]2[C@@H](O)[C@H](O[C@H]3OC(CN)=CC[C@H]3N)[C@@H](N)C[C@H]2N)OC[C@]1(C)O [Sisomicin sulfate] , answer whether its phenotypic distance meets or surpasses 0.9.
Result: -1

Problem: Given the entry CC(C)N1CCN(c2ccc(OCC3COC(Cn4cncn4)(c4ccc(Cl)cc4Cl)O3)cc2)CC1 (centres undefined) , answer whether its phenotypic distance meets or surpasses 0.9.
Result: 1

Problem: Given the entry Cc1cc(C(C)(C)CC(C)(C)C)ccc1OCCOCC[N+](C)(C)Cc1ccccc1 [Methyl benzethonium chloride] , answer whether its phenotypic distance meets or surpasses 0.9.
Result: 1

Problem: Given the entry CC(C)C[C@H](NC(=O)CNC(=O)c1cc(Cl)ccc1Cl)B(O)O , answer whether its phenotypic distance meets or surpasses 0.9.
Result: 1

Problem: Given the entry CN(c1nccc(=O)[nH]1)C1CCN(c2nc3ccccc3n2Cc2ccc(F)cc2)CC1 , answer whether its phenotypic distance meets or surpasses 0.9.
Result: -1
